- targetOrSystem: human PAD4 (Homo sapiens)
- Construct: human PAD4 (NM_012387), A2-P663, was PCR amplified; His-SUMO (N, cleaved yes); made in house; host or cells: E. coli BL21(DE3)
- Sequence (Q9UM07 2-663): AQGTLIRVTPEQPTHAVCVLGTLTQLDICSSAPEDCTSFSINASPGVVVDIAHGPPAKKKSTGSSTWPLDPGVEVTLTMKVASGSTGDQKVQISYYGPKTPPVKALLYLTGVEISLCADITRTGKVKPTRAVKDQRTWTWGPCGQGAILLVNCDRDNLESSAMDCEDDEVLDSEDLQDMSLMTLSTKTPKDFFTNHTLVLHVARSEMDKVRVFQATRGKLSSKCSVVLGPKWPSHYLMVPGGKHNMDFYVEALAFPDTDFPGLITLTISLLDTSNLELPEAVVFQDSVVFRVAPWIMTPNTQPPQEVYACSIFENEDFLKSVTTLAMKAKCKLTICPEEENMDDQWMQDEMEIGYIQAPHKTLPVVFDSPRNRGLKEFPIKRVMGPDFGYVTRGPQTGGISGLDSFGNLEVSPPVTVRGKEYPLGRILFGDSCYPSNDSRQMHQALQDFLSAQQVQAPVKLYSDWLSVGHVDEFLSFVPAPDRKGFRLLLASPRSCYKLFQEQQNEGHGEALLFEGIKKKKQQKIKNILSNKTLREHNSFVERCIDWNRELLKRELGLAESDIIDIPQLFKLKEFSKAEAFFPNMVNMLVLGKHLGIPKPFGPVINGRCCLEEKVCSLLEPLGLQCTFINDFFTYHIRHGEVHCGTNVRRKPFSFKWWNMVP
- experimentalProtocol: In vitro PAD4 BAEE biochemical assay
- conditionParameters: BAEE substrate 3 mM, 5 nM PAD4, 2 mM calcium chloride; geometric mean of multiple experiments
pIC50: −log10 of the molar value.
measuredQuantity: pIC50

Here's what some known entries look like.
INSERT INTO measurements (smilesrecord, value) VALUES
  ('COc1cc(C(=O)N2CC[C@@H](OC)[C@@H](N)C2)cc2nc(-c3cc4ccc5nc4n3CCCCCc3cccc(C(F)F)c3C(=O)N[C@@H]5C)n(C)c12', 7.04),
  ('CO[C@@H]1CCN(C(=O)c2ccc3c(c2)nc(-c2cc4ccc5nc4n2CCCCCc2cc(Cl)ncc2C(=O)N[C@@H]5C)n3C2CC2)C[C@@H]1N', 7.38),
  ('COc1cc(C(=O)N[C@@H]2CCCCNC2)cc2nc(-c3cc4ccc5nc4n3CCCCCCC3(CC3)C(=O)N[C@@H]5C)n(C)c12', 6.44),
  ('COc1cc(C(=O)N2CCC[C@@H](N)C2)cc2nc(-c3cc4ccc5nc4n3C[C@@H]3C[C@@H]3COCCC(=O)N[C@@H]5C)n(C)c12', 7.19);

a: COc1cc(C(=O)N2C[C@H](N)[C@@H]3CC[C@H]2C3)cc2nc(-c3cc4ccc5nc4n3CCCCCc3ccc(Cl)nc3C(=O)N[C@@H]5C)n(C)c12
b: COc1cc(C(=O)N2CCC[C@@H](N)C2)cc2nc(-c3cc4ccc5nc4n3C[C@@H]3C[C@H]3COC[C@H](C)C(=O)N[C@@H]5C)n(C)c12
Enquiry: For the two items a and b , which reports the higher pIC50 value? Reply with the label of the item you choose.
Return: a
